Test system: HSkMC
Test name: cytotoxicity call (relative viability < 0.9)
Recorded conditions: 10 µM
About 1,500 (3.8%) of roughly 39,000 compounds were called active. Many of the other results were omitted from the sample, so actives are more common in it than they were.
Endpoint: cytotoxicity call

compound="Oc1cc(O)c2c(c1)OC(c1cc(O)c(O)c(O)c1)C(O)C2c1c(O)cc(O)c2c1OC(c1cc(O)c(O)c(O)c1)C(O)C2c1c(O)cc(O)c2c1OC(c1cc(O)c(O)c(O)c1)C(O)C2 (configuration not stated)" endpoint="cytotoxicity call" readout_value=inactive
compound=Cc1noc(C)c1NC(=O)N(C)C[C@@H]1Oc2ccc(NS(=O)(=O)c3c(C)noc3C)cc2CC(=O)N([C@H](C)CO)C[C@H]1C endpoint="cytotoxicity call" readout_value=inactive
compound=CCCC#Cc1ccc2c(c1)O[C@@H](CN(C)Cc1ccc3c(c1)OCO3)[C@@H](C)CN([C@@H](C)CO)S2(=O)=O endpoint="cytotoxicity call" readout_value=inactive
compound=COc1ccc2c3c(n(c2c1)C)[C@@H](CO)N(C[C@]13CN(C1)C(=O)c1ccncc1)C(=O)C1CCOCC1 endpoint="cytotoxicity call" readout_value=inactive
compound=CO[C@H]1CN(C)C(=O)c2cc(NC(=O)Nc3cccc(Cl)c3)ccc2OC[C@H](C)N(C(=O)Nc2c(C)noc2C)C[C@H]1C endpoint="cytotoxicity call" readout_value=inactive
compound=C[C@@H]1CCCCO[C@H](CN(C)C(=O)Nc2ccc(F)cc2)[C@@H](C)CN([C@@H](C)CO)C(=O)c2cc(NC(=O)Nc3ccccc3)ccc2O1 endpoint="cytotoxicity call" readout_value=inactive
compound=Cc1ccc(S(=O)(=O)Nc2ccc3c(c2)C(=O)N([C@H](C)CO)C[C@H](C)[C@H](CN(C)S(C)(=O)=O)O3)cc1 endpoint="cytotoxicity call" readout_value=inactive

====

Tested on: HSkMC
Test name: cytotoxicity call (relative viability < 0.9)
Recorded conditions: 10 µM
The campaign covered roughly 39,000 compounds. About 1,500 (3.8%) were called active. Many of the other results were omitted from the sample, so actives are more common in it than they were.
Possible outcomes: active, inactive

smiles_str=C[C@@H]1CCCCO[C@H](CN(C)CC2CC2)[C@@H](C)CN([C@H](C)CO)C(=O)c2cc(NS(=O)(=O)c3ccc(Cl)cc3)ccc2O1 tgt=HSkMC class_name=inactive
smiles_str=CCCNC(=O)C[C@H]1CC[C@H]2[C@@H](COc3ccc(NC(=O)Nc4ccc(C#N)cc4)cc3C(=O)N2C)O1 tgt=HSkMC class_name=inactive
smiles_str=COc1cccc(NC(=O)C[C@H]2CC[C@H]3[C@H](COc4ccc(NC(=O)C5CCOCC5)cc4C(=O)N3C)O2)c1 tgt=HSkMC class_name=inactive
smiles_str=C[C@@H]1CN([C@@H](C)CO)C(=O)c2cc(NS(=O)(=O)c3ccc(F)cc3)ccc2O[C@@H](C)CCCCO[C@@H]1CN(C)S(=O)(=O)c1cn(C)cn1 tgt=HSkMC class_name=inactive
smiles_str=C[C@H]1CN([C@@H](C)CO)C(=O)Cc2cc(NC(=O)CCCN(C)C)ccc2O[C@@H]1CN(C)C(=O)Nc1ccc2c(c1)OCO2 tgt=HSkMC class_name=inactive
smiles_str=O=C(C[C@@H]1CC[C@H](NS(=O)(=O)c2ccc(F)cc2)[C@H](CO)O1)NCc1ccc(Cl)c(Cl)c1 tgt=HSkMC class_name=inactive
smiles_str=Cc1noc(C)c1NC(=O)N(C)C[C@@H]1OCCCC[C@@H](C)Oc2ccc(NC(=O)Nc3cccc4ccccc34)cc2C(=O)N([C@H](C)CO)C[C@@H]1C tgt=HSkMC class_name=inactive
smiles_str=C[C@@H]1CN([C@@H](C)CO)C(=O)c2cccc(NC(=O)c3cnccn3)c2O[C@@H]1CN(C)S(=O)(=O)c1ccc(Cl)cc1 tgt=HSkMC class_name=inactive
smiles_str=CN1C(=O)c2cc(NS(=O)(=O)c3ccc(F)cc3)ccc2OC[C@@H]2O[C@H](CC(=O)NCC(F)(F)F)CC[C@H]21 tgt=HSkMC class_name=inactive
smiles_str=Cc1ccc(S(=O)(=O)N2C[C@H](O)COC[C@H]3O[C@@H](CC(=O)N[C@@H]4CCN(Cc5ccccc5)C4)CC[C@@H]32)cc1 tgt=HSkMC class_name=inactive
smiles_str=CN1CCN(C(=O)C[C@H]2CC[C@@H]3[C@H](COC[C@@H](O)CN3C(=O)Nc3ccc4c(c3)OCO4)O2)CC1 tgt=HSkMC class_name=inactive
smiles_str=C[C@@H]1CN([C@@H](C)CO)C(=O)c2cc(NC(=O)c3ccccc3)ccc2O[C@@H](C)CCCCO[C@H]1CN(C)C(=O)c1ccccc1 tgt=HSkMC class_name=inactive
smiles_str=C[C@@H]1CCCCO[C@@H](CN(C)C(=O)Nc2ccccc2)[C@H](C)CN([C@H](C)CO)C(=O)c2cc(NC(=O)CCC(F)(F)F)ccc2O1 tgt=HSkMC class_name=inactive
smiles_str=Clc1ccccc1C(c1ccccc1)(c1ccccc1)n1ccnc1 tgt=HSkMC class_name=active
smiles_str=Cc1ccc(C(N)=S)c(=O)[nH]1 tgt=HSkMC class_name=inactive

====

Tested on: HSkMC
Test name: cytotoxicity call (relative viability < 0.9)
Recorded conditions: 10 µM
In all, about 39,000 compounds went through this assay and about 1,500 (3.8%) were called active. Only a selection was taken, and actives are over-represented in it overall.
Endpoint: cytotoxicity call

smiles_str=COc1ccc(NC(=O)N(C)C[C@H]2OCCCC[C@H](C)Oc3ccc(NS(=O)(=O)c4ccc(C)cc4)cc3C(=O)N([C@@H](C)CO)C[C@H]2C)cc1 endpoint="cytotoxicity call" readout_value=inactive
smiles_str=Cc1ccc(S(=O)(=O)N(C)C[C@@H]2Oc3ccc(NS(=O)(=O)c4ccc(F)cc4)cc3CC(=O)N([C@@H](C)CO)C[C@@H]2C)cc1 endpoint="cytotoxicity call" readout_value=inactive
smiles_str=NS(=O)(=O)c1ccc2c(c1)COC2 endpoint="cytotoxicity call" readout_value=inactive
smiles_str=CN1C[C@H](O)COC[C@@H]2O[C@@H](CC(=O)N3CCN(c4ccccc4)CC3)CC[C@H]21 endpoint="cytotoxicity call" readout_value=inactive
smiles_str=COc1c(O)cc(O)cc1O endpoint="cytotoxicity call" readout_value=inactive
smiles_str=Cc1noc(C)c1NC(=O)Nc1cccc2c1O[C@@H](CN(C)S(=O)(=O)c1ccccc1)[C@@H](C)CN([C@H](C)CO)C2=O endpoint="cytotoxicity call" readout_value=inactive
smiles_str=C[C@@H]1CCCCO[C@@H](CN(C)S(=O)(=O)c2ccccc2)[C@H](C)CN([C@@H](C)CO)C(=O)c2cc(NS(C)(=O)=O)ccc2O1 endpoint="cytotoxicity call" readout_value=inactive
smiles_str=COc1cc(C(=O)NCCCN2CCCN(CCCNC(=O)c3cc(OC)c(OC)c(OC)c3)CC2)cc(OC)c1OC endpoint="cytotoxicity call" readout_value=inactive
smiles_str=Cc1cn(CCC#N)c2ccccc12 endpoint="cytotoxicity call" readout_value=inactive

====

Tested on: HSkMC
Test name: cytotoxicity call (relative viability < 0.9)
Recorded conditions: 10 µM
The campaign covered roughly 39,000 compounds. About 1,500 (3.8%) were called active. This excerpt belongs to a sample that is enriched for actives.
Possible outcomes: active, inactive

molecule=COc1ccc(S(=O)(=O)Nc2ccc3c(c2)C(=O)N([C@H](C)CO)C[C@H](C)[C@@H](CN(C)C(=O)c2ccccc2)OCCCC[C@H](C)O3)cc1 class_name=inactive
molecule=Cc1ccc(-c2nn[nH]n2)n1C class_name=inactive
molecule=Cn1c(=O)c2c(ncn2C[C@@H](O)CO)n(C)c1=O class_name=inactive
molecule=O=C(C[C@@H]1C=C[C@H](NC(=O)c2ccncc2)[C@@H](CO)O1)NCc1ccncn1 class_name=inactive
molecule=Cn1c(=O)c(F)c(Nc2ccc(I)cc2F)c2c(=O)n(C[C@@H](O)CO)cnc21 class_name=active
molecule=C[C@@H]1CCCCO[C@H](CN(C)Cc2ccc(Cl)c(Cl)c2)[C@@H](C)CN([C@@H](C)CO)C(=O)c2cc(NS(=O)(=O)c3ccc(Cl)cc3)ccc2O1 class_name=active
molecule="Cn1c(=O)c2c(ncn2CC(O)CO)n(C)c1=O (centres undefined)" class_name=inactive
molecule=C[C@@H]1CCCCO[C@H](CN(C)C(=O)Nc2cccc3ccccc23)[C@H](C)CN([C@@H](C)CO)C(=O)c2cc(NS(=O)(=O)c3ccc(F)cc3)ccc2O1 class_name=inactive
molecule=C[C@@H]1CN([C@@H](C)CO)C(=O)c2cccc(NC(=O)NC3CCCCC3)c2O[C@H]1CN(C)Cc1ccc(C(F)(F)F)cc1 class_name=inactive

====

Tested on: HSkMC (human skeletal muscle cells)
Test name: cytotoxicity call (relative viability < 0.9)
Recorded conditions: 10 µM
About 1,500 (3.8%) of roughly 39,000 compounds were called active. Many of the other results were omitted from the sample, so actives are more common in it than they were.
Endpoint: cytotoxicity call

compound=O=C1CN(S(=O)(=O)Cc2ccccc2)C[C@@H]2[C@H](c3ccc(C#Cc4cccc(F)c4)cc3)[C@H](CO)N12 readout_value=inactive
compound=Cc1noc(C)c1NC(=O)Nc1cccc2c1O[C@H](CN(C)Cc1ccc(C(F)(F)F)cc1)[C@H](C)CN([C@@H](C)CO)C2=O readout_value=inactive
compound=O=C1CN(S(=O)(=O)Cc2ccccc2)C[C@H]2[C@H](c3ccc(C#Cc4cccc(F)c4)cc3)[C@@H](CO)N12 readout_value=inactive
compound=C[C@@H]1CN([C@@H](C)CO)C(=O)Cc2cc(NC(=O)Cn3cnnn3)ccc2O[C@@H]1CN(C)CC1CC1 readout_value=inactive
compound=CO[C@@H]1CN(C)C(=O)c2cc(NC(=O)C3CC3)ccc2OC[C@H](C)N(C(=O)Cc2ccccn2)C[C@@H]1C readout_value=inactive
compound=COC(=O)[C@@H](Cc1ccc(-n2cc(-c3ccc(C(=O)NO)s3)nn2)cc1)N1CC2=C[C@H](C3CC3)n3c(=O)n(C)c(=O)n3[C@@H]2[C@H]1[C@H](O)Cc1ccccc1 readout_value=inactive
compound=Cc1cc(O[C@@H](CCC(F)(F)F)c2ccc(C(=O)NCCC(=O)O)cc2)cc(C)c1-c1ccc(C(C)(C)C)cc1 readout_value=active
compound=O=C1CN(S(=O)(=O)Cc2ccccc2)C[C@@H]2[C@@H](c3ccc(C#Cc4cccc(F)c4)cc3)[C@H](CO)N12 readout_value=active
compound=C[C@H]1CN([C@@H](C)CO)C(=O)Cc2cc(NC(=O)Cc3ccccc3)ccc2O[C@@H]1CN(C)Cc1ccc(Cl)c(Cl)c1 readout_value=inactive
compound=Cc1ccc(S(=O)(=O)N(C)C[C@@H]2Oc3ccc(NS(=O)(=O)c4cccs4)cc3C(=O)N([C@@H](C)CO)C[C@@H]2C)cc1 readout_value=inactive
compound=O=C(O)CCNC(=O)c1ccccc1 readout_value=inactive
compound=C[C@@H]1CN([C@@H](C)CO)C(=O)Cc2cc(NC(=O)Cc3ccccc3)ccc2O[C@@H]1CN(C)Cc1ccc(Cl)c(Cl)c1 readout_value=active
compound=O=C(O)CN1C(=O)c2cccc3cccc(c23)C1=O readout_value=inactive
compound="CC1(C)OC2CC3C4CCC5=CC(=O)C=CC5(C)C4C(O)CC3(C)C2(C(=O)CO)O1 (stereo not given)" readout_value=inactive
compound=CC(C)NC(=O)N(C)C[C@H]1Oc2c(NS(=O)(=O)c3ccccc3)cccc2C(=O)N([C@@H](C)CO)C[C@@H]1C readout_value=inactive
compound=O=C1CN(S(=O)(=O)Cc2ccccc2)C[C@H]2[C@@H](c3ccc(C#Cc4cccc(F)c4)cc3)[C@H](CO)N12 readout_value=inactive
compound=O=C1CN(S(=O)(=O)Cc2ccccc2)C[C@@H]2[C@@H](c3ccc(C#Cc4cccc(F)c4)cc3)[C@@H](CO)N12 readout_value=active
compound=O=C(C[C@H]1C[C@@H]2c3cc(NC(=O)Nc4ccc(C(F)(F)F)cc4)ccc3O[C@@H]2[C@H](CO)O1)NC1CCCCC1 readout_value=inactive
compound=CNC(=O)CN1C(=O)[C@@H]2[C@@H](C1=O)[C@@H]1C=C[C@@H]2C1 readout_value=inactive
compound=O=C1CN(S(=O)(=O)Cc2ccccc2)C[C@H]2[C@@H](c3ccc(C#Cc4cccc(F)c4)cc3)[C@@H](CO)N12 readout_value=inactive
compound=COC(=O)CCCCCCC(=O)Nc1ccc([C@H]2O[C@@H](CSc3nc(-c4ccccc4)c(-c4ccccc4)o3)C[C@H](c3ccc([N+](=O)[O-])cc3)O2)cc1 readout_value=inactive
compound=C[C@@H]1CN([C@H](C)CO)C(=O)Cc2cc(NC(=O)Cc3ccccc3)ccc2O[C@@H]1CN(C)Cc1ccc(Cl)c(Cl)c1 readout_value=active
compound=CCS(=O)(=O)N(C)C[C@@H]1OCc2ccccc2-c2c(n(C)c3ccccc23)C(=O)N([C@@H](C)CO)C[C@@H]1C readout_value=inactive
compound=O=C(N[C@@H](c1ccc(-c2ccccc2)cc1)c1cnccn1)C1CCN(CCCOc2ccccc2)CC1 readout_value=inactive
compound=O=C1CN(S(=O)(=O)Cc2ccccc2)C[C@@H]2[C@H](c3ccc(C#Cc4cccc(F)c4)cc3)[C@@H](CO)N12 readout_value=inactive
compound=COCC#Cc1ccc([C@H]2[C@@H](CO)N3C(=O)CN(C(=O)c4cccnc4)C[C@@H]23)cc1 readout_value=inactive
compound=C[C@H](CO)N1C[C@H](C)[C@H](CN(C)Cc2ccc(Cl)c(Cl)c2)Oc2ccc(NC(=O)Cc3ccccc3)cc2CC1=O readout_value=inactive
compound=C[C@@H]1CN([C@@H](C)CO)C(=O)Cc2cc(NC(=O)Nc3ccc(F)cc3)ccc2O[C@@H]1CN(C)S(C)(=O)=O readout_value=inactive
compound=CC(C)NC(=O)Nc1ccc2c(c1)CC(=O)N([C@@H](C)CO)C[C@H](C)[C@H](CN(C)Cc1ccc(-c3ccccc3)cc1)O2 readout_value=inactive
compound=C[C@@H]1CCCCO[C@@H](CN(C)Cc2ccc(C(=O)Nc3ccccc3N)cc2)[C@@H](C)CN([C@H](C)CO)C(=O)c2cc(NC(=O)Nc3ccc4c(c3)OCO4)ccc2O1 readout_value=inactive

Data origin: the antibiotic and cytotoxicity screens of Wong et al. (2023)
